Biological target: Plk1 (Homo sapiens, UniProt P53350)
Construct: in the presence of 15 nM Plk1 (A20-K338)
Sequence (P53350 20-338): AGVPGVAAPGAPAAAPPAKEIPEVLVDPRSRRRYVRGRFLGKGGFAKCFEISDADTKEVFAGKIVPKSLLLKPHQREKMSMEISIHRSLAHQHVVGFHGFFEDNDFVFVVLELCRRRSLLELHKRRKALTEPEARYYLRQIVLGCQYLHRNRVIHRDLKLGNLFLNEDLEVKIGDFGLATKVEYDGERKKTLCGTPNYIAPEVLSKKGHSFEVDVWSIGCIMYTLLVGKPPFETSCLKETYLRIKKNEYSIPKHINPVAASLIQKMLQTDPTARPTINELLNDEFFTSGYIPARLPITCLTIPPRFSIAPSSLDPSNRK
Test: Plk1 inhibition assay (radioactive-phosphate incorporation)
Conditions: Ki(app)
Recorded Metric: Ki

Task: Fill in: Ki of CC(Oc1cc(-c2cc(-c3cccc(Cl)c3)cnc2N)sc1C(N)=O)c1ccccc1Cl (stereo not shown) is ___
Result: < 10 nM
